Quick reference: Wheat plant response rating of the listed items.
test system: wheat; test: Test C postemergence; format: in vivo, Triticum aestivum; settings: postemergence, 62 g ai/ha; scale 0 to 100
Format: numeric value only, no unit, no commentary.

CCCNC(=O)c1cc(CC)n(Cc2ccnc(OC(F)F)c2)n1
10

Reported Wheat plant response rating of `CCCc1cc(C(=O)NCC(F)(F)F)nn1Cc1cc(C(F)(F)F)nn1C` : 5

Reported Wheat plant response rating of `CCc1cc(C(=O)NOC(C)C)nn1Cc1ccnc(C(F)(F)F)c1` : 5

Reported Wheat plant response rating of `CCc1cc(C(=O)NC(C)C)nn1Cc1ccnc(C(F)(F)F)c1` : 5

Reported Wheat plant response rating of `CCNC(=O)c1cc(CC)n(Cc2ccnc(OC(F)F)c2)n1` : 0

Reported Wheat plant response rating of `CCc1cc(C(=O)NCC(F)(F)F)nn1Cc1ccnc(C(F)(F)F)c1` : 10

====

Quick reference: Morningglory plant response rating of the listed items.
tested on: morningglory; assay: Test A postemergence; format: in vivo, Ipomoea spp.; settings: Postemergence, 500 g ai/ha; 0 to 100 scale (0 no effect, 100 complete control)
Format: numeric value only, no unit, no commentary.

O=C(NCC(F)(F)F)c1cc(CCCl)n(Cc2ccnc(C(F)(F)F)c2)n1
100
O=C(NC1CC1)c1cc(Br)n(Cc2cccc(C(F)(F)F)c2)n1
20
CCONC(=O)c1cc(CC)n(Cc2cc(C(F)(F)F)nn2CC)n1
100

Now consider the entry below.
Reported Morningglory plant response rating of `CCCCNC(=O)c1cc(Cl)n(Cc2cccc(C(F)(F)F)c2)n1` : 30

====

tested on: corn; experiment: Test A postemergence; type: in vivo, Zea mays; conditions: Postemergence, 500 g ai/ha; 0 to 100 scale (0 no effect, 100 complete control)
Source text: […]
Lab note: compare Corn plant response rating with 80, writing 1 (yes) if less and 0 (no) if equal or more.

CCOc1cc(C(=O)NC(C)C)nn1Cc1ccnc(C(F)(F)F)c1
0 (no)
CCCCc1cc(C(=O)NC2CC2)nn1Cc1ccnc(C(F)(F)F)c1
1 (yes)
CCCNC(=O)c1cc(CC)n(Cc2cc(OC(F)F)nn2C)n1
1 (yes)

Query: # check: Corn plant response rating < 80 for `Cc1cc(C(=O)NC(C)C)nn1Cc1ccnc(C(F)(F)F)c1`
Response: 0 (no)

====

test system: corn; assay: Test C preemergence; assay type: in vivo, Zea mays; conditions: preemergence, 125 g ai/ha; 13 to 15 days; scale 0 to 100, 0 = no effect, 100 = complete control
measured property: Plant response rating, Corn
Format: numeric value only, no unit, no commentary.

Reported Plant response rating, Corn of `CCNC(=O)c1cc(CC)n(Cc2ccnc(OC(F)F)c2)n1` : 45

Reported Plant response rating, Corn of `CCNC(=O)c1cc(CC)n(Cc2ccnc(C(F)(F)F)c2)n1` : 65

Reported Plant response rating, Corn of `Cc1cc(C(=O)NC(C)C)nn1Cc1ccnc(C(F)(F)F)c1` : 45

Reported Plant response rating, Corn of `CCc1cc(C(=O)NC2CC2)nn1Cc1cc(C(F)(F)C(F)(F)F)nn1C` : 30

====

tested on: crabgrass, large; experiment: Test A preemergence; format: in vivo, Digitaria sanguinalis; settings: preemergence, 125 g ai/ha; visual injury, 0 to 100 scale, approx. 10 days
Quick reference: Crabgrass, Large plant response rating of the listed items.
Format: numeric value only, no unit, no commentary.

Previously resolved entries follow.
CCNC(=O)c1cc(CC)n(Cc2ccnc(OC(F)F)c2)n1 [Compound 130]
100
CCc1cc(C(=O)NOC(C)C)nn1Cc1ccnc(C(F)(F)F)c1 [Compound 101]
100
CCc1cc(C(=O)NCC(F)(F)F)nn1Cc1ccnc(OCC(F)(F)F)c1 [Compound 106]
100
CCCNC(=O)c1cc(CC)n(Cc2ccnc(OC(F)F)c2)n1 [Compound 132]
100
O=C(NCC(F)(F)F)c1cc(CCCl)n(Cc2ccnc(C(F)(F)F)c2)n1 [Compound 143]
100
CCc1cc(C(=O)NC(C)C)nn1Cc1ccnc(C(F)(F)F)c1 [Compound 139]
100

# CCCc1cc(C(=O)NCC(F)(F)F)nn1Cc1cc(C(F)(F)F)nn1C [Compound 138] with crabgrass, large: Crabgrass, Large plant response rating is 100

# CCONC(=O)c1cc(C)n(Cc2cccc(OC(F)(F)F)c2)n1 [Compound 73] with crabgrass, large: Crabgrass, Large plant response rating is 30

====

Quick reference: Pigweed plant response rating of the listed items.
system: pigweed; assay: Test A preemergence; format: in vivo, Amaranthus retroflexus; conditions: preemergence, 500 g ai/ha, visual injury after approx. 10 days, 0 to 100 scale (0 no effect, 100 complete control)
Description: […]
Format: numeric value only, no unit, no commentary.

Previously resolved entries follow.
CCCc1cc(C(=O)NCC(F)(F)F)nn1Oc1ccnc(C(F)(F)F)c1
100
CCCc1cc(C(=O)NC2CC2)nn1Oc1ccnc(C(F)(F)F)c1
100
O=C(NC1CC1)c1cc(Cl)n(Cc2cccc(C(F)(F)F)c2)n1
90

Reported Pigweed plant response rating of `CCc1cc(C(=O)NC2CC2)nn1Cc1ccnc(OCC(F)(F)F)c1` : 100

Reported Pigweed plant response rating of `CCNC(=O)c1cc(CCCl)n(Cc2ccnc(C(F)(F)F)c2)n1` : 100

====

tested on: velvetleaf; experiment: Test A preemergence; assay type: in vivo, Abutilon theophrasti; conditions: Preemergence, 1000 g ai/ha; 0 to 100 scale, 0 no effect, 100 complete control
From the text: […]
Quick reference: Velvetleaf plant response rating of the listed items.
Format: numeric value only, no unit, no commentary.

Previously resolved entries follow.
CCc1cc(C(=O)NCC(C)(C)C)nn1Cc1cccc(C(F)(F)F)c1
0
CCc1cc(C(=O)NC)nn1Cc1cccc(OC(F)(F)F)c1
20
CCc1cc(C(=O)N(C)CC)nn1Cc1cccc(OC(F)(F)F)c1
0
CCc1cc(C(=O)NCCOC)nn1Cc1cccc(C(F)(F)F)c1
0
C=CCNC(=O)c1cc(CC)n(Cc2cccc(C(F)(F)F)c2)n1
0

Reported Velvetleaf plant response rating of `CCc1cc(C(=O)N(C)C)nn1Cc1cccc(OC(F)(F)F)c1` : 0

====

tested on: pigweed; assay: Test A postemergence; assay type: in vivo, Amaranthus retroflexus; details: Postemergence, 500 g ai/ha; 0 to 100 scale (0 no effect, 100 complete control)
measured property: Pigweed plant response rating
Format: numeric value only, no unit, no commentary.

Previously resolved entries follow.
CCCNC(=O)c1cc(CC)n(Cc2cc(C(F)(F)F)no2)n1
40
CCCNC(=O)c1cc(I)n(Cc2cccc(C(F)(F)F)c2)n1
80

Now consider the entry below.
Reported Pigweed plant response rating of `O=C(NC1CC1)c1cc(Br)n(Cc2cccc(C(F)(F)F)c2)n1` : 80

====

tested on: ducksalad; test: Test C flooded paddy test; format: in vivo, Heteranthera limosa; conditions: Flood, 250 g ai/ha; scale 0 to 100
Quick reference: Plant response rating, Ducksalad of the listed items.
Format: numeric value only, no unit, no commentary.

# `CCc1cc(C(=O)NOC(C)(C)CC)nn1Cc1cccc(OC(F)(F)F)c1` with ducksalad: Plant response rating, Ducksalad is 0

# `CCONC(=O)c1cc(C)n(Cc2cccc(OC(F)(F)F)c2)n1` with ducksalad: Plant response rating, Ducksalad is 55

# `CCNC(=O)c1cc(C)n(Cc2cccc(OC(F)(F)F)c2)n1` with ducksalad: Plant response rating, Ducksalad is 60

# `CCCNC(=O)c1cc(CCCl)n(Cc2ccnc(C(F)(F)F)c2)n1` with ducksalad: Plant response rating, Ducksalad is 100

====

system: lambsquarters; assay: Test C preemergence; assay type: in vivo, Chenopodium album; conditions: preemergence, 62 g ai/ha; scale 0 to 100 (0 no effect, 100 complete control), 13 to 15 days
measured property: Lambsquarters plant response rating
Format: numeric value only, no unit, no commentary.

CCONC(=O)c1cc(CC)n(Cc2cc(C(F)(F)F)no2)n1 [Compound 125]
35

Reported Lambsquarters plant response rating of CCCNC(=O)c1cc(CC)n(Cc2ccnc(OC(F)F)c2)n1 [Compound 132] : 100

Reported Lambsquarters plant response rating of CCNC(=O)c1cc(CC)n(Cc2ccnc(OC(F)F)c2)n1 [Compound 130] : 100

Reported Lambsquarters plant response rating of CCc1cc(C(=O)NCC2CC2)nn1Cc1ccnc(C(F)(F)F)c1 [Compound 199] : 100

====

Quick reference: Crabgrass, Large plant response rating of the listed items.
system: crabgrass, large; assay: Test A postemergence; type: in vivo, Digitaria sanguinalis; conditions: postemergence, 125 g ai/ha, about 10 days, visual rating on 0 to 100 scale (0 no effect, 100 complete control)

Previously resolved entries follow.
CCCc1cc(C(=O)NCC(F)(F)F)nn1Cc1ccnc(C(F)(F)F)c1
100
CCCc1cc(C(=O)Nc2ccc(F)cc2)nn1Cc1cc(C(F)(F)F)nn1C
10
CCc1cc(C(=O)NCC(F)(F)F)nn1Oc1ccnc(C(F)(F)F)c1
20
CCc1cc(C(=O)NC(C)C)nn1Cc1ccnc(C(F)(F)F)c1 [Compound 139]
90

Now consider the entry below.
# `CNC(=O)c1cc(C)n(Cc2cccc(OC(F)(F)F)c2)n1` with crabgrass, large: Crabgrass, Large plant response rating is 0

Source listed as patent US20150105252A1.
